# credit: patent US20250270191A1

# ASSAY SYSTEM: Human BCL6 protein (N-terminal HiBiT tagged BCL6 in HT1080 cells) (Homo sapiens, UniProt P41182+Q96SW2)
# Construct: Human BCL6 protein coding open reading frame; expressed in transfected cells; host or cells: HT1080 (ATCC CCL-121), stably transduced with lentivirus pLV-UBC-N-HiBiT-BCL6-PGK-puro
# ASSAY: HiBiT based BCL6 degradation assay
# Format: cell-based
# CONDITION NOTES: HT1080 cells expressing N-terminal HiBiT tagged BCL6; 5 hours incubation; BCL6 degradation normalized with DMSO control
READOUT TYPE: Ymin (5 hr)

COMPOUND	EXPERIMENTAL VALUE
CNC(=O)COc1cc2cc(Nc3nc(N4CCC(CCNc5cccc(C6CCC(=O)NC6=O)c5)CC4)ncc3Cl)ccc2n(C)c1=O (stereo not shown)	++ (50% < Ymin ≤ 70%)
CNC(=O)COc1cc2cc(Nc3nc(N4CCN(C[C@H]5CCN(c6cccc7c(C8CCC(=O)NC8=O)nn(C)c67)C5)CC4)ncc3Cl)ccc2n(C)c1=O (stereo partly shown) [Compound 305a]	+++ (25% < Ymin ≤ 50%)
CNC(=O)COc1cc2cc(Nc3nc(N4CCC(CC5CCN(c6ccc7c(C8CCC(=O)NC8=O)nn(C)c7c6)CC5)CC4)ncc3Cl)ccc2n(C)c1=O (stereo not shown)	+++ (25% < Ymin ≤ 50%)
CNC(=O)COc1cc2cc(Nc3nc(N4CCN(C[C@@H]5CCN(c6cccc7c(C8CCC(=O)NC8=O)nn(C)c67)C5)CC4)ncc3Cl)ccc2n(C)c1=O (stereo partly shown) [Compound 305b]	+++ (25% < Ymin ≤ 50%)
CNC(=O)COc1cc2cc(Nc3nc(NC[C@H]4CCCN(c5cccc6c(C7CCC(=O)NC7=O)nn(C)c56)C4)ncc3Cl)ccc2n(C)c1=O (stereo partly shown) [Compound 303b]	++ (50% < Ymin ≤ 70%)
CNC(=O)COc1cc2cc(Nc3nc(N4CCC(C5CN(c6cccc7c(C8CCC(=O)NC8=O)nn(C)c67)C5)CC4)ncc3Cl)ccc2n(C)c1=O (stereo not shown)	+++ (25% < Ymin ≤ 50%)
CNC(=O)COc1cc2cc(Nc3nc(NC[C@H]4CCCN(c5ccc6c(C7CCC(=O)NC7=O)nn(C)c6c5)C4)ncc3Cl)ccc2n(C)c1=O (stereo partly shown) [Compound 295a]	++ (50% < Ymin ≤ 70%)
CNC(=O)COc1cc2cc(Nc3nc(N4CC5(CCC(Nc6ccc7c(C8CCC(=O)NC8=O)nn(C)c7c6)CC5)C4)ncc3Cl)ccc2n(C)c1=O (stereo not shown)	++++ (Ymin ≤ 25%)
CNC(=O)COc1cc2cc(Nc3nc(N4CCC(CNc5ccc(C6CCC(=O)NC6=O)cc5)CC4)ncc3Cl)ccc2n(C)c1=O (stereo not shown)	++ (50% < Ymin ≤ 70%)
CNC(=O)COc1cc2cc(Nc3nc(NC[C@H]4CC[C@@H](CNc5ccc6c(C7CCC(=O)NC7=O)nn(C)c6c5)CC4)ncc3Cl)ccc2n(C)c1=O (stereo partly shown) [Compound 293a]	+++ (25% < Ymin ≤ 50%)
CNC(=O)COc1cc2cc(Nc3nc(N4CCN(C(C)(C)C5CCN(c6ccc7c(C8CCC(=O)NC8=O)nn(C)c7c6)CC5)CC4)ncc3Cl)ccc2n(C)c1=O (stereo not shown)	+++ (25% < Ymin ≤ 50%)
CNC(=O)COc1cc2cc(Nc3nc(N4CCN([C@@H](C)C5CCN(c6cccc7c(C8CCC(=O)NC8=O)nn(C)c67)CC5)CC4)ncc3Cl)ccc2n(C)c1=O (single isomer, unassigned) [Compound 307a]	++++ (Ymin ≤ 25%)
CNC(=O)COc1cc2cc(Nc3nc(N4C5CCC4CN(CC4CCN(c6cccc7c(C8CCC(=O)NC8=O)nn(C)c67)CC4)C5)ncc3Cl)ccc2n(C)c1=O (stereo not shown)	+++ (25% < Ymin ≤ 50%)
CNC(=O)COc1cc2cc(Nc3nc(N4CCCC5(CCCN(c6ccc7c(C8CCC(=O)NC8=O)nn(C)c7c6)C5)C4)ncc3Cl)ccc2n(C)c1=O (stereo not shown)	++ (50% < Ymin ≤ 70%)
CNC(=O)COc1cc2cc(Nc3nc(N4CCC[C@H](COc5cccc6c(C7CCC(=O)NC7=O)nn(C)c56)C4)ncc3Cl)ccc2n(C)c1=O (stereo partly shown) [Compound 301a]	++ (50% < Ymin ≤ 70%)
CNC(=O)COc1cc2cc(Nc3nc(N4CCN(CC5CCN(c6ccc7c(C8CCC(=O)NC8=O)nn(C)c7c6)CC5)[C@H](C)C4)ncc3Cl)ccc2n(C)c1=O (stereo partly shown) [Compound 309a]	+++ (25% < Ymin ≤ 50%)
CNC(=O)COc1cc2cc(Nc3nc(N4CCC(C(=O)N5CCN(c6ccc7c(C8CCC(=O)NC8=O)nn(C)c7c6)CC5)CC4)ncc3Cl)ccc2n(C)c1=O (stereo not shown)	++++ (Ymin ≤ 25%)
CNC(=O)COc1cc2cc(Nc3nc(NC[C@H]4CC[C@@H](Nc5ccc(C6CCC(=O)NC6=O)cc5)CC4)ncc3Cl)ccc2n(C)c1=O (stereo partly shown) [Compound 277b]	++ (50% < Ymin ≤ 70%)
CNC(=O)COc1cc2cc(Nc3nc(N4CCC(C5CN(c6ccc7c(C8CCC(=O)NC8=O)nn(C)c7c6)C5)CC4)ncc3Cl)ccc2n(C)c1=O (stereo not shown)	+++ (25% < Ymin ≤ 50%)
CNC(=O)COc1cc2cc(Nc3nc(N4CCC[C@@H](COc5cccc6c(C7CCC(=O)NC7=O)nn(C)c56)C4)ncc3Cl)ccc2n(C)c1=O (stereo partly shown) [Compound 301b]	++ (50% < Ymin ≤ 70%)
CNC(=O)COc1cc2cc(Nc3nc(N4CCN(C[C@H]5CCN(c6ccc7c(C8CCC(=O)NC8=O)nn(C)c7c6)C5)CC4)ncc3Cl)ccc2n(C)c1=O (stereo partly shown) [Compound 306a]	+++ (25% < Ymin ≤ 50%)

====

# ASSAY SYSTEM: Human BCL6 protein (N-terminal HiBiT tagged BCL6 in HT1080 cells) (Homo sapiens, UniProt P41182+Q96SW2)
# Construct: Human BCL6 protein coding open reading frame; expressed in transfected cells; host or cells: HT1080 (ATCC CCL-121), stably transduced with lentivirus pLV-UBC-N-HiBiT-BCL6-PGK-puro
# ASSAY: HiBiT based BCL6 degradation assay
# Format: cell-based
# CONDITION NOTES: HT1080 cells expressing N-terminal HiBiT tagged BCL6; 5 hours incubation; BCL6 degradation normalized with DMSO control
READOUT TYPE: Ymin (5 hr)

MOLECULE	EXPERIMENTAL VALUE
CNC(=O)COc1cc2cc(Nc3nc(N4CCC5(CCC(Nc6cccc7c(C8CCC(=O)NC8=O)nn(C)c67)CC5)C4)ncc3Cl)ccc2n(C)c1=O (stereo not drawn)	++ (50% < Ymin ≤ 70%)
CNC(=O)COc1cc2cc(Nc3nc(N4CCN(C5CN(c6cccc7c(C8CCC(=O)NC8=O)nn(C)c67)C5)CC4)ncc3Cl)ccc2n(C)c1=O (stereo not drawn)	+++ (25% < Ymin ≤ 50%)
CNC(=O)COc1cc2cc(Nc3nc(N4CCC(CCNc5ccc(C6CCC(=O)NC6=O)cc5)CC4)ncc3Cl)ccc2n(C)c1=O (stereo not drawn)	++ (50% < Ymin ≤ 70%)
CNC(=O)COc1cc2cc(Nc3nc(N4CCC(CC5CN(c6cccc7c(C8CCC(=O)NC8=O)nn(C)c67)C5)CC4)ncc3Cl)ccc2n(C)c1=O (stereo not drawn)	+++ (25% < Ymin ≤ 50%)
CNC(=O)COc1cc2cc(Nc3nc(N4CCC[C@@H](CCNc5cccc6c(C7CCC(=O)NC7=O)nn(C)c56)C4)ncc3Cl)ccc2n(C)c1=O (stereo in doubt) [Compound 294a]	++ (50% < Ymin ≤ 70%)

====

# ASSAY SYSTEM: Human BCL6 protein (N-terminal HiBiT tagged BCL6 in HT1080 cells) (Homo sapiens, UniProt P41182+Q96SW2)
# Construct: Human BCL6 protein coding open reading frame; expressed in transfected cells; host or cells: HT1080 (ATCC CCL-121), stably transduced with lentivirus pLV-UBC-N-HiBiT-BCL6-PGK-puro
# ASSAY: HiBiT based BCL6 degradation assay
# Format: cell-based
# CONDITION NOTES: HT1080 cells expressing N-terminal HiBiT tagged BCL6; 5 hours incubation; BCL6 degradation normalized with DMSO control
READOUT TYPE: Ymin (5 hr)

MOLECULE	EXPERIMENTAL VALUE
CNC(=O)COc1cc2cc(Nc3nc(NCc4ccc(CNc5ccc6c(C7CCC(=O)NC7=O)nn(C)c6c5)cc4)ncc3Cl)ccc2n(C)c1=O (stereo not drawn)	++ (50% < Ymin ≤ 70%)
CNC(=O)COc1cc2cc(Nc3nc(N4CCC[C@H](CN(C)c5cccc6c(C7CCC(=O)NC7=O)nn(C)c56)C4)ncc3Cl)ccc2n(C)c1=O (stereo partly drawn) [Compound 299a]	+++ (25% < Ymin ≤ 50%)
CNC(=O)COc1cc2cc(Nc3nc(N4CCC(CCCCOc5ccc6c(C7CCC(=O)NC7=O)nn(C)c6c5)CC4)ncc3Cl)ccc2n(C)c1=O (stereo not drawn)	++ (50% < Ymin ≤ 70%)
CNC(=O)COc1cc2cc(Nc3nc(N4CCC[C@H](CN(C)c5ccc6c(C7CCC(=O)NC7=O)nn(C)c6c5)C4)ncc3Cl)ccc2n(C)c1=O (stereo partly drawn) [Compound 312a]	++ (50% < Ymin ≤ 70%)
CNC(=O)COc1cc2cc(Nc3nc(NC[C@H]4CC[C@H](CNc5ccc6c(C7CCC(=O)NC7=O)nn(C)c6c5)CC4)ncc3Cl)ccc2n(C)c1=O (stereo partly drawn) [Compound 293b]	++ (50% < Ymin ≤ 70%)
CNC(=O)COc1cc2cc(Nc3nc(N4CCCC5(CCN(c6ccc7c(C8CCC(=O)NC8=O)nn(C)c7c6)C5)C4)ncc3Cl)ccc2n(C)c1=O (stereo not drawn)	+++ (25% < Ymin ≤ 50%)
